test system: P12-Ichikawa; assay: cell viability relative to DMSO control; higher = less cytotoxic; conditions: HPLM + 10% dialyzed FBS; 48 h; 0.19 µM
quantity: cell viability (%)
Expressed in %, but write only the number.

>>> meas_value("CCOc1cc(N)c(Cl)cc1C(=O)NCC1CN(Cc2ccc(F)cc2)CCO1 (stereo unspecified)")
111
>>> meas_value("CC(C)C[C@H](NC(=O)[C@@H](NC(=O)c1cccc(-c2ccccc2)n1)[C@@H](C)O)B(O)O")
7.04
>>> meas_value("C[S+](=O)([O-])N(Cc1ccco1)CC(O)Cn1c2ccccc2c2ccccc21 (stereo unspecified)")
98.8
>>> meas_value("N=C(N)NC(=O)c1nc(Cl)c(N)nc1N")
116
>>> meas_value("CC1(C)OC2CC3C4CC(F)C/5=C/C(=O)/C=C\\C5(C)C4C(O)CC3(C)[C@@]2(O1)C(=O)CO (stereo partly specified)")
94.9

Let us examine a further case.
Record request: cell viability value, item `NC(=O)c1ncn([C@@H]2O[C@H](CO)[C@@H](O)[C@H]2O)n1` 118

----------
tested on: SEM cells; assay: cell viability relative to DMSO control; higher = less cytotoxic; conditions: RPMI 5 mM glucose + 10% FBS; 48 h; 0.0632 µM
A collection of molecules and their measured cell viability
Numbers only here, please. The scale is %.

// below: answered molecules
>>> meas_value("Cc1cc(Nc2nc(N[C@@H](C)c3ncc(F)cn3)ncc2Cl)n[nH]1")
112
>>> meas_value("CN(C/C=C/C#CC(C)(C)C)Cc1cccc2ccccc12")
93.3
>>> meas_value("CCOC(=O)[C@H](CCc1ccccc1)N[C@@H](C)C(=O)N1CCC[C@H]1C(=O)O")
106
>>> meas_value("CNC1[C@@H](O)C(O[C@@H]2C(O)C(O[C@H]3O[C@H]([C@@H](C)NC)CC[C@H]3N)[C@@H](N)C[C@H]2N)OC[C@]1(C)O (some centres not stated)")
92.2
>>> meas_value("CC[C@H]1/C=C\\C=C/C[C@@H](C)[C@H](O)[C@@](C)(O)C(=O)[C@@H](C)[C@H](O)[C@@H](C)C(=O)[C@@H](C)[C@H](O)[C@@H](C)/C=C/C(=O)O[C@@H]2[C@H](C)[C@H](CC1)O[C@]1(CC[C@H](C)[C@H](C[C@@H](C)O)O1)[C@H]2C")
90.3

Dear colleague, I am looking for the recorded cell viability of the following molecule: `COc1cc2c(Nc3ccc(Cl)c(Cl)c3F)ncnc2cc1OC[C@@H]1C[C@@H]2CN(C)C[C@@H]2C1` 118

Here is the next molecule: `O=C1C[C@@H](c2ccc(O)cc2)Oc2cc(O)cc(O)c21` 91.7

----------
Recorded cell viability by entry
test system: P12-Ichikawa; assay: cell viability relative to DMSO control; higher = less cytotoxic; details: HPLM + 10% dialyzed FBS; 48 h; 0.000781 µM
Write the number in % without appending the unit.

Answered cases to consult:
>>> meas_value("Cc1ccc(O)c(C(CCN(C(C)C)C(C)C)c2ccccc2)c1.Cl (stereo not drawn)")
121
>>> meas_value("CC(=O)NC(CS)C(=O)O (stereo not drawn)")
81.9
>>> meas_value("Cc1cccc(C)c1OCC(=O)N[C@@H](Cc1ccccc1)[C@@H](O)C[C@H](Cc1ccccc1)NC(=O)[C@H](C(C)C)N1CCCNC1=O")
99.5

Request - read-out cell viability | tested on P12-Ichikawa | compound `CN(C)CCc1c[nH]c2ccc(C[C@H]3COC(=O)N3)cc12` 98.4

Entry `CN1\C(=C(\O)C2=C(C=CS2)[S+]1([O-])=O)C(=O)NC3=CC=CC=N3` please 110

How about this compound: `Clc1cc(Cl)cc(CNc2ncncc2-c2ccc3c(c2)OCO3)c1` 93.7

Also C[S+](=O)([O-])N(Cc1ccco1)CC(O)Cn1c2ccccc2c2ccccc21 (stereo not drawn) , if possible. 94.2

Input `CCc1c(C(=O)C(N)=O)c2c(OCC(=O)O)cccc2n1Cc1ccccc1` 105

How about `CC(C)[C@@H](C[S+](=O)([O-])C(C)C)N1C(=O)[C@@](C)(CC(=O)O)C[C@H](c2cccc(Cl)c2)[C@H]1c1ccc(Cl)cc1` ? 109

Another compound to check: `C[C@@H]1COCCN1C\2=C\C(=O)N\3CC[C@H](N(CC4=CN=CC(=C4)Cl)C3=N2)C(F)(F)F` 94

Again, but for `COC[C@@H](NC(C)=O)C(=O)NCc1ccccc1` 117
